System under test: hCA IX (Homo sapiens, UniProt Q16790)
Construct: gene CA9; recombinant, made in-house
Test name: stopped-flow CO2 hydrase assay
Assay type: biochemical
Protocol conditions: CO2 substrate; […] HEPES pH […] Na2SO4; […] min preincubation at room temperature
Value kind: Ki (nM)
Hi! Could you send only the number? It should be in nM, unit omitted.

Entry NS(=O)(=O)c1cc(C(=O)O)c(Cl)cc1Cl [compound 1, 2,4‐dichloro‐5‐sulfamoylbenzoic acid] , Ki reported as 2.6

---

System under test: hCA IX (Homo sapiens)
Construct: gene CA9; recombinant, made in-house
Test name: stopped-flow CO2 hydrase assay
Assay type: biochemical
Description: stopped-flow CO2 hydrase assay on hCA IX
Value kind: pKi
To interpret pKi, take it as minus log10 of a concentration measured in moles per litre.

Entry NS(=O)(=O)c1cc(C(=O)N2CCN(S(=O)(=O)c3ccc([N+](=O)[O-])cc3)CC2)c(Cl)cc1Cl [compound 8] , pKi reported as 7.40

Entry NS(=O)(=O)c1cc(C(=O)N2CCN(S(=O)(=O)Cc3ccccc3)CC2)c(Cl)cc1Cl [compound 16] , pKi reported as 6.56

Entry NS(=O)(=O)c1cc(C(=O)N2CCN(S(=O)(=O)c3ccccc3[N+](=O)[O-])CC2)c(Cl)cc1Cl [compound 13] , pKi reported as 7.54

Entry CC(C)(C)OC(=O)N1CCN(C(=O)c2cc(S(N)(=O)=O)c(Cl)cc2Cl)CC1 [compound 2] , pKi reported as 7.40

Entry Nc1ccc(S(=O)(=O)N2CCN(C(=O)c3cc(S(N)(=O)=O)c(Cl)cc3Cl)CC2)cc1 [compound 9] , pKi reported as 6.82

Entry COc1ccc(S(=O)(=O)N2CCN(C(=O)c3cc(S(N)(=O)=O)c(Cl)cc3Cl)CC2)cc1 [compound 6] , pKi reported as 7.39

Entry NS(=O)(=O)c1cc(C(=O)N2CCN(S(=O)(=O)c3cccc([N+](=O)[O-])c3)CC2)c(Cl)cc1Cl [compound 11] , pKi reported as 7.42
